Origin of values: PubChem BioAssay AID1963964

# Test system: 997726-040-R-J2-PDC tumor spheroids, viability
# Method Description: Anticancer human tumor 997726-040-R-J2-PDC patient-derived squamous cell lung carcinoma cell line growth inhibition [PI3K]
# Experimental Conditions: curve of first compound; second compound 0.01 µM; spheroids with HUVEC and MSC
Observation Type: IC50 (nM)

Example compounds with recorded IC50:
CCN1CCN(Cc2ccc(Nc3ncc(F)c(-c4cc(F)c5nc(C)n(C(C)C)c5c4)n3)nc2)CC1 + COc1c(OCCCN2CCOCC2)ccc2c3n(c(=NC(=O)c4cnc(N)nc4)nc12)CCN3
10.4
CCCS(=O)(=O)Nc1ccc(F)c(C(=O)c2c[nH]c3ncc(-c4ccc(Cl)cc4)cc23)c1F + COc1c(OCCCN2CCOCC2)ccc2c3n(c(=NC(=O)c4cnc(N)nc4)nc12)CCN3
5360
CC(C)n1nc(-c2ccc3oc(N)nc3c2)c2c(N)ncnc21 + CC(Nc1ccc2c(c1)OCCn1cc(N3C(=O)OCC3C(F)F)nc1-2)C(N)=O
16.5

I: Cn1nccc1Nc1nccc(-c2ccn(C(CO)c3ccc(Cl)c(F)c3)c(=O)c2)n1 (stereo unspecified) + COc1c(OCCCN2CCOCC2)ccc2c3n(c(=NC(=O)c4cnc(N)nc4)nc12)CCN3
II: CC(C)NCC(C(=O)N1CCN(c2ncnc3c2C(C)CC3O)CC1)c1ccc(Cl)cc1 (stereo unspecified) + CC(Nc1ccc2c(c1)OCCn1cc(N3C(=O)OCC3C(F)F)nc1-2)C(N)=O
(Q) Field: entry with larger IC50 (options I / II ). State the label of the item chosen.
(A) II
(II: 233 nM, I: 40.8 nM)

---

# Tested on: 997726-040-R-J2-PDC tumor spheroids, viability
# Method Description: Anticancer human tumor 997726-040-R-J2-PDC cell line growth inhibition [PI3K];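 also: spheroids exposed to compounds for seven days before readout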
# Experimental Conditions: second compound 0.01 µM; first compound 1 µM; stronger effect = lower value; spheroids with HUVEC and MSC
A collection of compounds and their measured viability, T/C
Record the value in %, omitting the unit from your answer.

// worked examples, viability, T/C included
CNC(=O)c1ccc(N2C(=S)N(c3ccc(C#N)c(C(F)(F)F)c3)C(=O)C2(C)C)cc1F + CC(Nc1ccc2c(c1)OCCn1cc(N3C(=O)OCC3C(F)F)nc1-2)C(N)=O
72.8
CCN1CCN(Cc2ccc(Nc3ncc(F)c(-c4cc(F)c5nc(C)n(C(C)C)c5c4)n3)nc2)CC1 + COc1c(OCCCN2CCOCC2)ccc2c3n(c(=NC(=O)c4cnc(N)nc4)nc12)CCN3
60.8
CC1(C)CCC(Nc2ncc(C(F)(F)F)c(-c3c[nH]c4c(P(C)(C)=O)c(C#N)ccc34)n2)CN1 (stereo not given) + CC(Nc1ccc2c(c1)OCCn1cc(N3C(=O)OCC3C(F)F)nc1-2)C(N)=O
31
C#Cc1c(F)ccc2cc(O)cc(-c3ncc4c(N5CC6CCC(C5)N6)nc(OCC56CCCN5CC(F)C6)nc4c3F)c12 (stereo not given) + COc1c(OCCCN2CCOCC2)ccc2c3n(c(=NC(=O)c4cnc(N)nc4)nc12)CCN3
57.2

# viability, T/C (compound: CC1(C)CCC(CN2CCN(c3ccc(C(=O)NS(=O)(=O)c4ccc(NCC5CCOCC5)c([N+](=O)[O-])c4)c(Oc4cnc5[nH]ccc5c4)c3)CC2)=C(c2ccc(Cl)cc2)C1 + CC(Nc1ccc2c(c1)OCCn1cc(N3C(=O)OCC3C(F)F)nc1-2)C(N)=O ) is 81.6
